One threshold, 0.8, splits the recorded logP values: lower ones are yes, equal or higher ones are no.

[[record]]
molecule = "COc1ccccc1C(=O)NCCCN"
qualitative_label = "yes"

[[record]]
molecule = "Cc1cnc2ccccn2c1=O"
qualitative_label = "yes"

[[record]]
molecule = "Cc1cc(C)nc(-n2c(C)cc(=O)n2C)n1"
qualitative_label = "yes"

[[record]]
molecule = "CC(=O)NC1CC1c1ccccc1 (centres undefined)"
qualitative_label = "no"

[[record]]
molecule = "CCCC(=O)NC(=O)NC(=O)CCC"
qualitative_label = "no"

[[record]]
molecule = "CCOc1cc(Cc2cnc(N)nc2N)cc(OCC)c1N"
qualitative_label = "no"

[[record]]
molecule = "CCCC1=Nc2cc(Cl)ccc2S(=O)(=O)N1"
qualitative_label = "no"

[[record]]
molecule = "CCc1cc(NC(C)=O)ccc1O"
qualitative_label = "no"

[[record]]
molecule = "CCOC(=O)N(C)SN(C)C(=O)ON=C(C)SC"
qualitative_label = "no"

[[record]]
molecule = "CC(O)Cn1ccnc1[N+](=O)[O-] (centres undefined)"
qualitative_label = "yes"

[[record]]
molecule = "Fc1cccc(F)c1N=C1NCCN1"
qualitative_label = "no"

[[record]]
molecule = "CN(C)C(=O)c1cc(N2CC2)c([N+](=O)[O-])cc1[N+](=O)[O-]"
qualitative_label = "yes"

[[record]]
molecule = "CNc1ccc(S(N)(=O)=O)cc1"
qualitative_label = "yes"

[[record]]
molecule = "CC(=O)Nc1cc(OCC(=O)O)ccc1Cl"
qualitative_label = "yes"

[[record]]
molecule = "CNC(=O)Oc1cc(C)cc(C(C)(C)C)c1"
qualitative_label = "no"

[[record]]
molecule = "Clc1ccccc1-c1ccccc1Cl"
qualitative_label = "no"

[[record]]
molecule = "CN(C)c1ccc2c(c1)C(c1ccccc1)=NCC(=O)N2C"
qualitative_label = "no"

[[record]]
molecule = "CC(=O)NNC(=O)c1ccccn1"
qualitative_label = "yes"

[[record]]
molecule = "Cc1[nH]c(=O)n(OC(C)C)c(=O)c1Br"
qualitative_label = "yes"

[[record]]
molecule = "NS(=O)(=O)NS(=O)(=O)Nc1ccccc1"
qualitative_label = "yes"

[[record]]
molecule = "CCCCCCCCCC[n+]1ccc(C)c(C)c1.[I-]"
qualitative_label = "yes"

[[record]]
molecule = "O=C(O)Cc1ccc(OCc2ccccc2)c(Cl)c1"
qualitative_label = "no"

[[record]]
molecule = "COc1ccnc(-n2nc(C)cc2OC)n1"
qualitative_label = "no"

[[record]]
molecule = "CSc1nc2nc(SC)[nH]c(Cl)c-2n1"
qualitative_label = "yes"

[[record]]
molecule = "CCC(=O)CC(=O)CC"
qualitative_label = "no"

[[record]]
molecule = "Oc1ccc(C(c2ccncc2)c2ccc(O)cc2)cc1"
qualitative_label = "no"

[[record]]
molecule = "O=C1NC(=S)SC1=Cc1ccc([N+](=O)[O-])o1"
qualitative_label = "yes"

[[record]]
molecule = "CCOC(=O)C(C#N)=NNc1ccc(Cl)c(C(F)(F)F)c1"
qualitative_label = "no"


* * *

Listed compounds paired with reported logP
Quantity measured: logP

[[record]]
compound = "CSc1nnc(CC(C)C)c(=O)n1N"
result_number = 1.39

[[record]]
compound = "CCCOn1c(=O)c(Br)c(C)n(C)c1=O"
result_number = 0.72

[[record]]
compound = "CON(C)C(=O)Nc1ccc(OCc2ccccc2)cc1"
result_number = 3.11

[[record]]
compound = "O=S1(=O)NC(C(Cl)Cl)=Nc2cc(Cl)ccc21"
result_number = 1.81

[[record]]
compound = "Nc1ccccc1C(c1ccc(O)cc1)c1ccc(O)cc1"
result_number = 3.16

[[record]]
compound = "NC1CC2OC1c1ccccc12 (stereo not drawn)"
result_number = 0.75

[[record]]
compound = "Nc1ncc(Cc2cc(Cl)c(Cl)cc2Cl)c(N)n1"
result_number = 3.79

[[record]]
compound = "N#Cc1ccc(C=CNC=O)cc1"
result_number = 1.62

[[record]]
compound = "CCC1C(=O)NC(=O)N(C)C1=O (stereo not drawn)"
result_number = 0.15

[[record]]
compound = "O=c1[nH]nc(CSc2ccccc2)[nH]1"
result_number = 1.46

[[record]]
compound = "Cc1cnc2cccc(C)n2c1=O"
result_number = 1.26

[[record]]
compound = "CN(C)CCCC(c1ccccc1)c1ccc(C(C)(C)C)cc1 (stereo not drawn)"
result_number = 5.72

[[record]]
compound = "COc1ccc(N=NN(C)C(C)=O)cc1"
result_number = 2.61

[[record]]
compound = "NNC(=O)c1cccc(N)c1"
result_number = -0.86

[[record]]
compound = "COc1cccc(NC=O)c1"
result_number = 1.25

[[record]]
compound = "CN1C(=Nc2ncc([N+](=O)[O-])s2)NCC1(C)C"
result_number = 2.35

[[record]]
compound = "CNC(=O)O/N=C/C(C)(C)S(C)(=O)=O"
result_number = -0.57

[[record]]
compound = "CN1C(C(=O)Nc2nccs2)C(=O)c2ccccc2S1(=O)=O (stereo not drawn)"
result_number = 1.64

[[record]]
compound = "Cc1ncc([N+](=O)[O-])n1CCCS(C)(=O)=O"
result_number = -1

[[record]]
compound = "Cc1noc(-c2ccccn2)n1"
result_number = 0.89

[[record]]
compound = "Brc1cccc(Br)c1NC1=NCCN1"
result_number = 1.96

[[record]]
compound = "N#Cc1cccc(N2C(=O)CCC2=O)c1"
result_number = 0.02

[[record]]
compound = "CC1=Nc2ccc(C)cc2S(=O)(=O)N1"
result_number = 0.81

[[record]]
compound = "O=c1cc(-c2ccc([N+](=O)[O-])o2)sc(=O)[nH]1"
result_number = 0.55

[[record]]
compound = "COc1cc(Cc2cnc(N)nc2N)cc(OC)c1C(=O)OC(C)C"
result_number = 1.72

[[record]]
compound = "COC(=O)C(C#N)=NNc1cc(Cl)cc(Cl)c1"
result_number = 4.5

[[record]]
compound = "CCC(=O)N(C)c1ccc(S(=O)(=O)N(C)C)cc1"
result_number = 0.71

[[record]]
compound = "CC(=O)c1ccc(NS(=O)(=O)C(F)(F)F)cc1"
result_number = 2.83


* * *

Quantity measured: logP

[[record]]
compound = "CC1=Nc2ccc(C(F)(F)F)cc2S(=O)(=O)N1"
result_number = 1.51

[[record]]
compound = "CCCOn1c(=O)[nH]c(C)c(SC#N)c1=O"
result_number = -0.22

[[record]]
compound = "CCCCCCNP(=O)(OC)SC (configuration not stated)"
result_number = 1.11

[[record]]
compound = "O=[N+]([O-])C=Cc1ccc(O)cc1"
result_number = 2.12

[[record]]
compound = "CC1=Nc2c(Cl)cccc2S(=O)(=O)N1"
result_number = 0.72

[[record]]
compound = "FC(F)(F)c1nc2cc(Br)c(Br)cc2[nH]1"
result_number = 4.15

[[record]]
compound = "CCCCC1OC(=O)c2cc(Cl)ccc21 (configuration not stated)"
result_number = 3.53

[[record]]
compound = "COC12C(COC(N)=O)C3=C(C(=O)C(C)=C(Nc4ncc(C)s4)C3=O)N1CC1NC12 (configuration not stated)"
result_number = 1.16

[[record]]
compound = "O=[N+]([O-])c1cc[n+]([O-])c2c([N+](=O)[O-])cccc12"
result_number = 0.76

[[record]]
compound = "CS(=O)(=O)c1cccc(NS(=O)(=O)C(F)(F)F)c1"
result_number = 1.85

[[record]]
compound = "COc1cc(Cc2cnc(N)nc2N)cc(OC)c1-n1cccc1"
result_number = 1.78

[[record]]
compound = "Nc1nc(N)nc(-c2c(Cl)cccc2Cl)n1"
result_number = 1.38

[[record]]
compound = "CCN1CCN=C1Nc1ncc([N+](=O)[O-])s1"
result_number = 2.28

[[record]]
compound = "CC(=O)N(C)c1c(I)c(C(=O)NCC(O)CO)c(I)c(C(=O)NCC(O)CO)c1I (configuration not stated)"
result_number = -2.06

[[record]]
compound = "COC(=O)C(C#N)=NNc1ccc2c(c1)OC(F)(F)C(F)(F)O2"
result_number = 4.86

[[record]]
compound = "CN(C=O)c1ccc(S(=O)(=O)N(C)C)cc1"
result_number = 0.4

[[record]]
compound = "Cn1nnc2ccccc21"
result_number = 1.13

[[record]]
compound = "N#Cc1ccc([N+](=O)[O-])n1CCO"
result_number = 0.6

[[record]]
compound = "CC1=Nc2cc(C)ccc2S(=O)(=O)N1"
result_number = 0.74

[[record]]
compound = "O=C1OC(C2CCCCC2)c2ccccc21 (configuration not stated)"
result_number = 3.34

[[record]]
compound = "Cc1ccccc1C(=O)NN"
result_number = 0.22

[[record]]
compound = "CC(=O)OCCOC(=O)c1ccccc1"
result_number = 1.85

[[record]]
compound = "N#Cc1cccc(OC(=O)CNC(=O)c2ccccc2)c1"
result_number = 2.11

[[record]]
compound = "O=C1CN=C(c2ccccc2F)c2cc(Cl)c(Cl)cc2N1"
result_number = 3.63

[[record]]
compound = "CNP(=O)(OC)Oc1ccc([N+](=O)[O-])cc1 (configuration not stated)"
result_number = 1.27

[[record]]
compound = "CCCCNC(=O)NN"
result_number = -0.6

[[record]]
compound = "CC(C)(C)c1cccc(OC2OC(CO)C(O)C(O)C2O)c1 (configuration not stated)"
result_number = 1.01

